As shown below, each of these compounds has a reported growth value.
system: HCT-116 colon; test: NCI-60 one-dose screen, 48 h (100 = growth as untreated, 0 = no growth, -100 = all killed); conditions: 10 µM unless noted
This is part of a sample that, as a whole, favours compounds with a hit. Of some 83,000 tested, about 20% had one in any assay.
Could you give me the number in %? Just the number is fine.

Example cases with answers are listed next.
COC(=O)[C@@H](Cc1c[nH]c2ccccc12)NC[C@@H](O)CN1C(=O)/C(=C\c2cc(OC)c(OC)c(OC)c2)c2ccccc21	66
COc1cc(C2CC(c3cccc(Nc4ccncc4)c3)=Nc3c(N)ncnc3N2)cc(OC)c1OC (stereo not drawn)	87.9

For the next question, use this compound.
INPUT: For COC(CCP(=O)(c1ccccc1)c1ccccc1)(C(=O)c1ccccc1)c1ccccc1 (stereo not drawn) , what is its reported growth?
OUTPUT: 45.5

---

Parameter: growth. Scope: all listed entries.
test system: HCC-2998 colon; assay: NCI-60 one-dose screen, 48 h (100 = growth as untreated, 0 = no growth, -100 = all killed); conditions: 10 µM unless noted
The panel holds about 83,000 compounds, 20% with a hit somewhere; the sample as a whole holds those more often.
Answer with a number only, understood to be in %.

CCCS(=O)(=O)Nc1cccc(Nc2ncnc3cc(NC(=O)CCl)ccc23)c1Cl	4.99
O=C(NCCN1CCOCC1)c1cncnc1Nc1ccc2c(ccn2Cc2ccccn2)c1	100
Cc1csc(Nc2nc(-c3cccc(Cl)c3)nc(C(Cl)(Cl)Cl)n2)n1	7.13

Please find the next molecule below.
INPUT: Value lookup for growth; key = COc1ccc(-c2nc(SCCC(C)C)nc(N/N=C(/C)c3ccc(N)cc3)c2C#N)cc1
OUTPUT: 97.4

---

Each entry below carries its reported growth.
test system: HCT-116 colon; assay: NCI-60 one-dose screen, 48 h (100 = growth as untreated, 0 = no growth, -100 = all killed); conditions: 10 µM unless noted
About 83,000 compounds went through this panel and 20% of them were active in at least one assay; those are over-represented in the sample as a whole.
Report only the number, with the unit % understood.

Example entries begin here.
CCCc1cc(CCC)n2nc(N)nc2n1	103
COc1ccc(NC(=O)CSc2oc(-c3ccccc3)nc2S(=O)(=O)c2ccc(Cl)cc2)c(OC)c1	41.6
CN1CCN(Cc2ccc(NC(=O)c3cncc(C#Cc4c(N)ncc5c(F)cccc45)c3)cc2C(F)(F)F)CC1	-89.1
CC(=O)[C@H]1CC[C@]2(C)[C@@H]1CC[C@@H]1[C@@]3(C)C/C(=C/c4cccnc4)C(=O)C(C)(C)[C@@H]3CC[C@]12C	33.2
O=C1c2ccccc2-c2c1c1ccncc1c(=O)n2CCCn1ccnc1	5.31

INPUT: Which growth value belongs to CC1=C(C(=O)OCc2ccccc2)C(c2ccc3c(c2)OCO3)n2c(nc3ccccc32)N1 (stereo not drawn) ?
OUTPUT: 18.8

INPUT: Field entry: O=CN1N=C(c2cccc(Nc3ccncc3)c2)CC1c1ccc2c(c1)OCO2 (stereo not drawn)
OUTPUT: 83.1

INPUT: // next record Clc1nc(N2CCC[N+]3(CC2)CC[N+]2(CCCNCC2)CC3)nc(N2CCC[N+]3(CC2)CC[N+]2(CCCNCC2)CC3)n1 (stereo not drawn)
OUTPUT: 87

INPUT: How about CC(=O)O[C@H]1CC[C@@]2(C)C(=CC[C@@H]3[C@@H]2CC[C@]2(C)C(Cl)=C(c4nc5ccc(Cl)cn5c4NC(C)(C)C)C[C@@H]32)C1 ?
OUTPUT: 86.6

INPUT: Again, but for CCOc1ccc(N2C(=O)CCSC2=S)cc1
OUTPUT: 112

---

# growth per entry
tested on: SN12C renal; assay: NCI-60 one-dose screen, 48 h (100 = growth as untreated, 0 = no growth, -100 = all killed); details: 10 µM unless noted
The panel holds about 83,000 compounds, 20% with a hit somewhere; the sample as a whole holds those more often.
Give a bare numeral; the unit % is implied.

Some molecules with recorded growth:
O=c1cc(-c2nccc3c2[nH]c2ccccc23)c2cc(Cl)ccc2o1	62.4
CCCC1Cc2cc(-n3nc(C)c4c3CC(C)(C)CC4=O)cc(NC3CCC(O)CC3)c2C(=O)N1 (centres undefined)	38
COc1ccccc1/C=C/C1=C(C)CCC(c2ccccc2OC)C1C (centres undefined)	28

Turning to the following molecule.
INPUT: Which value of growth has been reported for CN1CCN(CC(=O)N(C)c2ccc(N=C(c3ccccc3)c3c(O)[nH]c4ccc([N+](=O)[O-])cc34)cc2)CC1 in the records?
OUTPUT: 56.8

---

tested on: SK-MEL-5 melanoma; experiment: NCI-60 one-dose screen, 48 h; conditions: 10 µM unless noted
The panel holds about 83,000 compounds, 20% with a hit somewhere; the sample as a whole holds those more often. Active and inactive are the calls of the source. Rule for the calls: active = growth percent below 10; inactive = the rest.
Outcome (select one): T = active, F = inactive

The following molecules have reported results that may help.
CN(C)C(=O)OCc1ccc2c(Cl)cc(Cl)c(O)c2n1	F
CCOC(=O)c1c2c(n3ccc(NC(=O)CCN4CCCC4)cc13)C(=O)c1ncccc1C2=O	F
Cc1cc2c(c(C)n1)CN(C(=O)Nc1nc(-c3cncs3)ccc1N)C2	F

INPUT: What classification did CN1CCN(Cc2ccc(NC(=O)c3cncc(C#Cc4c(N)ncc5cc(F)ccc45)c3)cc2C(F)(F)F)CC1 end up with in this test?
OUTPUT: T

INPUT: # iterate: Cc1csc(Nc2nc(-c3cccc(Cl)c3)nc(C(Cl)(Cl)Cl)n2)n1
OUTPUT: F

INPUT: Lookup COc1ccccc1-c1nc2ccc3[nH]ncc3c2c2c1CCCC2
OUTPUT: F

INPUT: Same question, O=C1NCCN1/N=C/c1c(Cl)n(Cc2ccc(Cl)cc2)c2ccccc12 this time
OUTPUT: F

---

In this section we review reported growth values for a set of compounds.
test system: UO-31 renal; assay: NCI-60 one-dose screen, 48 h (100 = growth as untreated, 0 = no growth, -100 = all killed); conditions: 10 µM unless noted
Compounds without any hit were thinned out: in the full panel of roughly 83,000, 20% have a hit.
# value in %; strip the unit string

Reference set, count: 5
CCCN1C2CCC1/C(=C\c1ccc(OC)cc1)C(=O)/C2=C/c1ccc(OC)cc1	56.3
Brc1ccc(-c2nn(-c3ccccc3)cc2-c2nn[nH]n2)s1	52.8
C=CC(=O)NCc1cccc(Nc2ncc(Br)c(NCCCNC(=O)C3CCC3)n2)c1	-9.45
Cc1cc([N+](=O)[O-])ccc1NC(=O)c1ccc2c(c1)nc(-c1ccccc1)n2C1CCCCC1	62.4
O=C(Nc1ccc2[nH]ncc2c1)c1csc(Nc2ccccc2)n1	45.5

INPUT: Give UO-31 renal growth for COc1ccc(C(=O)C2OC3=C(C(=O)CC(C)(C)C3)C2c2cccc(Oc3ccccc3)c2)cc1 (configuration not stated)
OUTPUT: 74

INPUT: Also need O=C1CC2C=CCN2C=C1NC(=O)c1ccccc1 (configuration not stated) , thanks.
OUTPUT: 98.2

INPUT: Repeat for the following compound: C#CCOc1ccc(C2=NN(CCCC)C3N=C(Cl)c4ncn(CCCC)c4N23)cc1OCC#C (configuration not stated)
OUTPUT: 62.5

---

test system: T-47D breast; test: NCI-60 one-dose screen, 48 h (100 = growth as untreated, 0 = no growth, -100 = all killed); details: 10 µM unless noted
The panel holds about 83,000 compounds, 20% with a hit somewhere; the sample as a whole holds those more often.
For each record, check the reported growth: if it is below 70% write Fulfilled, else write Not fulfilled.

These recorded examples may help you get a feel for the data.
O=C(Oc1ccccc1)c1cc(O)c(O)c(O)c1	Fulfilled
CCC(=C(c1ccc(OCCN(CC)CC)cc1)c1ccc(OCCN(CC)CC)cc1)c1ccc(Cl)cc1	Fulfilled
Cc1c(CC(=O)Nc2ccccc2)nnn1-c1ccccc1	Not fulfilled
COc1ccc(S(=O)(=O)N(C)c2oc(-c3ccc(Cl)cc3)nc2C#N)cc1	Not fulfilled
COC(=O)c1nc(-c2ccccc2)oc1S(=O)(=O)N1CCN(c2ccc(OC)cc2)CC1	Fulfilled

INPUT: Below 70% on growth? Entry Cc1ccc(S(=O)(=O)N(CCC(=O)O)c2ccccc2)cc1
OUTPUT: Not fulfilled

INPUT: How about Nc1ncc(-c2ccc3ncnc(N4CCc5cc(F)c(Cl)cc54)c3c2)cc1C(F)(F)F ?
OUTPUT: Fulfilled

---

system: OVCAR-4 ovarian; assay: NCI-60 one-dose screen, 48 h; settings: 10 µM unless noted
Compounds without any hit were thinned out: in the full panel of roughly 83,000, 20% have a hit. Calls of active or inactive are those of the source. How the source made its calls: active means growth percent below 10; inactive means the rest.
A correct response names exactly one class from yes for active, no for inactive

Take a look at these entries with their results.
COc1ccc(/C=C/C(=O)c2ccc(-n3cc(CN4CCN(c5cc6c(cc5F)c(=O)c(C(=O)O)cn6C5CC5)CC4)nn3)cc2)cc1	no
C#CCOc1cccc(Nc2c(Cl)c(CCl)nc3ccc(Oc4ccccc4)cc23)c1	no
CCOC(=O)c1ccc2c(c1)c1c(C)c3cnccc3c(C)c1n2C	yes
c1ccc(Cn2cc3c(c2)-c2nc(Nc4ccccc4)ncc2CC3)cc1	no

INPUT: Hello, I am checking results. What call was entered for O=C(CN1C(=O)c2ccccc2S1(=O)=O)Nc1nc(-c2cc3ccccc3oc2=O)cs1 ?
OUTPUT: no

INPUT: Entry O=C(CNc1ncco1)Nc1ccc(S(=O)(=O)c2ccc(NC(=O)CNc3ncco3)cc2)cc1 please
OUTPUT: no

INPUT: Another compound: Oc1ccc(C(c2ccc(O)cc2)c2ccc(Cl)cn2)cc1
OUTPUT: yes

INPUT: Then this compound: O=C(Nc1ncc(Cc2ccccc2)s1)c1cc(-c2ccccc2)nc2ccccc12
OUTPUT: no

INPUT: And what about the compound COC(=O)c1c(C)nc(C)c2c1C(=O)C(Br)=C(NCCN1CCOCC1)C2=O ?
OUTPUT: no

INPUT: Try this compound too: COc1cc2c(c(OC)c1OC)CCC(c1cccc(C(=O)Nc3ccccc3Br)c1)O2 (stereo not given)
OUTPUT: no
